Taken from ChEMBL document CHEMBL1649182.

biological target: Penicillin-binding protein 2B (Streptococcus pneumoniae serotype 4 (strain ATCC BAA-334 / TIGR4), UniProt P0A3M5); assay: Displacement of Biocillin FL from Streptococcus pneumoniae 3009 PBP2B
Sequence (P0A3M5 whole entry): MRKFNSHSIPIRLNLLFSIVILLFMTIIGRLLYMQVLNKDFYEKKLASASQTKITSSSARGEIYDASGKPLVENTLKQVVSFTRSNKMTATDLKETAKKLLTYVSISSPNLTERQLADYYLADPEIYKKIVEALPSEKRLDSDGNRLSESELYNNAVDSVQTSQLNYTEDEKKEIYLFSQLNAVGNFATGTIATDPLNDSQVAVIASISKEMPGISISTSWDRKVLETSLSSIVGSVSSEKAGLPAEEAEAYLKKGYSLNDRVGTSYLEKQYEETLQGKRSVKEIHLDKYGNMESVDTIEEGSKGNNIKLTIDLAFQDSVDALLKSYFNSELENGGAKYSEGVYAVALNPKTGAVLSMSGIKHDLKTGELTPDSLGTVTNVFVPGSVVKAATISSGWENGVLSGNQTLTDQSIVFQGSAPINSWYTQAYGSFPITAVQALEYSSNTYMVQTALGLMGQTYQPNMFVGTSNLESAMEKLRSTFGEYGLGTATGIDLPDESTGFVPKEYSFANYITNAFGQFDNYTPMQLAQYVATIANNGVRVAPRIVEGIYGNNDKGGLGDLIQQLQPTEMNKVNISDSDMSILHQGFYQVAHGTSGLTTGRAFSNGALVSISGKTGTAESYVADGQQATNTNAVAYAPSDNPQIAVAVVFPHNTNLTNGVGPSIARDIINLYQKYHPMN
Please note: IC50 exactly at 100 nM is not fulfilled. Only values below 100 nM get fulfilled.

{"molecule": "CC1(C)S[C@@H]2[C@H](NC(=O)[C@H](N)c3ccc(O)cc3)C(=O)N2[C@H]1C(=O)O", "class": "not fulfilled"}
{"molecule": "CO/N=C(\\C(=O)N[C@@H]1C(=O)N2C(C(=O)O)=C(COC(N)=O)CS[C@H]12)c1ccco1", "class": "not fulfilled"}
{"molecule": "C[C@@H](O)[C@H]1C(=O)N2C(C(=O)O)=C([C@H]3CCCO3)S[C@H]12", "class": "fulfilled"}
{"molecule": "C[C@@H](O)[C@H]1C(=O)N2C(C(=O)O)=C(SCCNC=N)C[C@H]12 [IMIPENEM ANHYDROUS]", "class": "not fulfilled"}
{"molecule": "CC1(C)S[C@@H]2[C@H](NC(=O)Cc3ccccc3)C(=O)N2[C@H]1C(=O)O", "class": "fulfilled"}
